target: potato tuber PPi-PFK (pyrophosphate-dependent fructose-6-phosphate kinase, EC2.7.1.90) (Solanum tuberosum, UniProt P21342+P21343); construct: Peeled potato tubers (330 g) were homogenized in a blendor; test: Stimulation assay of potato tuber PPi-PFK by Fructose 2,6 Pi; conditions: in the presence of 1 mM fructose 6-phosphate and 2.5 mM PPi; FIG. 3; read-out: half-maximal effect (activation of potato tuber PPi-PFK)
Sequence (P21342 whole entry): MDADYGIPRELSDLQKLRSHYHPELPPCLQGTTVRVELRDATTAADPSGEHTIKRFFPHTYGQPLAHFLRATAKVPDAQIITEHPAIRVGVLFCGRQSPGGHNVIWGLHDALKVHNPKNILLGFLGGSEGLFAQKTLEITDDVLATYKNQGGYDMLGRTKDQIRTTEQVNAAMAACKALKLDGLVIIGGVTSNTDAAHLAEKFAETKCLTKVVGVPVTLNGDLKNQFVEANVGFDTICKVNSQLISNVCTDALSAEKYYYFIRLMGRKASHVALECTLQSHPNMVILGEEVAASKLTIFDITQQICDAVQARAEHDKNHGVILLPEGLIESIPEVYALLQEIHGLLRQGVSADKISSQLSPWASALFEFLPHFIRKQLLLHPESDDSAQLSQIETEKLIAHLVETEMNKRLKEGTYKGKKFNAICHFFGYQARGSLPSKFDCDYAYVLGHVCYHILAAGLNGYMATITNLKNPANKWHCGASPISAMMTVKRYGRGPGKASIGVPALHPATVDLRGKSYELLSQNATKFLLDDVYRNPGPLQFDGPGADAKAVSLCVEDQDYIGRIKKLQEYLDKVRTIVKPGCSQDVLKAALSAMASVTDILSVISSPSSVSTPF
Sequence (P21343 whole entry): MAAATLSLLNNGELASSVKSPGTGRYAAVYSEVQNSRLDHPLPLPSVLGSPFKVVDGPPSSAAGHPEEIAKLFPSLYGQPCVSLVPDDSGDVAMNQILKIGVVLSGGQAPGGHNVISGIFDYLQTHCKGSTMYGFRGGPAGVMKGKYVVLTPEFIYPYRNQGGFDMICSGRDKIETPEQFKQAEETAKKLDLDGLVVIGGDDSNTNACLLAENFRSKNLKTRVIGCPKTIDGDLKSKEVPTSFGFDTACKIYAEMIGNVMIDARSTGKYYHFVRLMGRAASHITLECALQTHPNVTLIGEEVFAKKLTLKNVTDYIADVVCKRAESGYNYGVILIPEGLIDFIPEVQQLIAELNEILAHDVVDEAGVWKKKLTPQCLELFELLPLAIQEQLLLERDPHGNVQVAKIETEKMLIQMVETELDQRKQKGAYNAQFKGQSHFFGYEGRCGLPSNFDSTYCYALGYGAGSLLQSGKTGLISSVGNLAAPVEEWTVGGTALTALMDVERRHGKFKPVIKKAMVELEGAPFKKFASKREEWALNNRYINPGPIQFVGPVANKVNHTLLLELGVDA
Endpoint label: EC50

{"Compound": "O=P(O)(O)OCC1OC(CO)(OP(=O)(O)O)C(O)C1O (stereo not shown) [fructose 2, 6 Pi, fructose-2,6-bisphosphate]", "Reported measurement": "~5.5 nM"}
